Just for reference, the Immune Epitope Database (IEDB) is where these values come from.

TESTED_TARGET: HLA-B*46:01
METHOD_DESCRIPTION: IEDB peptide-MHC binding, purified MHC/direct/fluorescence; filed as Kd, often an IC50 or EC50 that approximates it; bounds were set here for any values at or beyond the usual limits of such assays
TEST_CONDITIONS: source organism: Salmonella enterica subsp. enterica serovar Typhimurium
pKd: −log10 of the molar value.
READOUT_TYPE: pKd

Using known records, supply pKd for QVNDVLHSV ≤ 4.70

* * *

TESTED_TARGET: HLA-A*02:01
METHOD_DESCRIPTION: IEDB peptide-MHC binding, purified MHC/direct/fluorescence; filed as Kd, often an IC50 or EC50 that approximates it; bounds were set here for any values at or beyond the usual limits of such assays
TEST_CONDITIONS: source organism: Escherichia coli O157:H7
READOUT_TYPE: Kd

Consider the sequence HEVHAVWPG and give its recorded Kd. ≥ 20 µM

* * *

TESTED_TARGET: HLA-B*07:02
METHOD_DESCRIPTION: IEDB peptide-MHC binding, purified MHC/competitive/radioactivity; filed as Kd, often an IC50 or EC50 that approximates it; bounds were set here for any values at or beyond the usual limits of such assays
TEST_CONDITIONS: source organism: Triticum aestivum
Task for the reader: assign each of the following sequences its reported pKd.
Scale note: pKd = -log10(concentration in M).

Dear colleague, please send me the reported pKd for PPYCTIAPVGI when you can. 5.35

Please indicate pKd recorded for LPYPQPQLPY 5.36

Look up and state reported pKd for QPFPSQQPYL 4.76

Return the recorded pKd value; entry: IPCRDVVL 5.43

* * *

TESTED_TARGET: HLA-A*24:02
METHOD_DESCRIPTION: IEDB peptide-MHC binding, purified MHC/direct/fluorescence; filed as Kd, often an IC50 or EC50 that approximates it; bounds were set here for any values at or beyond the usual limits of such assays
TEST_CONDITIONS: source organism: Influenza A virus (A/chicken/Hunan/fg/2004(H5N1))
pKd: −log10 of the molar value.
READOUT_TYPE: pKd

Determine its reported pKd: YSHGTGTGY ≤ 4.70

* * *

TESTED_TARGET: HLA-A*31:01
METHOD_DESCRIPTION: IEDB peptide-MHC binding, purified MHC/direct/fluorescence; filed as Kd, often an IC50 or EC50 that approximates it; bounds were set here for any values at or beyond the usual limits of such assays
TEST_CONDITIONS: source organism: Cryptosporidium parvum
pKd: −log10 of the molar value.
READOUT_TYPE: pKd

Supply pKd measured with HLA-A*31:01 for WLPWIPQLI . ≤ 4.70

* * *

TESTED_TARGET: HLA-B*08:01
METHOD_DESCRIPTION: IEDB peptide-MHC binding, purified MHC/competitive/fluorescence; bounds were set here for any values at or beyond the usual limits of such assays
TEST_CONDITIONS: source organism: Zaire ebolavirus
READOUT_TYPE: IC50 (µM)
Supply the numeric figure in µM, leaving out any unit text.

Please look at this sequence and report its IC50: MNHKNKFMA 19.9

Identify measured IC50 corresponding to TVIYRGTTF 45.4

* * *

Consider the following sequences; for each one, report its IC50.
TESTED_TARGET: HLA-B*07:02
METHOD_DESCRIPTION: IEDB peptide-MHC binding, purified MHC/competitive/fluorescence; bounds were set here for any values at or beyond the usual limits of such assays
TEST_CONDITIONS: source organism: Zaire ebolavirus

Recall and state the measured IC50 for SVGHMMVIF . ≥ 277 µM

State its IC50 for this sequence: TVIYRGTTF 14.3 µM
